molecular target: cannabinoid receptor (Rattus norvegicus, UniProt P20272); construct: a synaptosomal membrane preparation derived from rat whole brain, without brainstem; from tissue; host or cells: rat whole brain without brainstem, synaptosomal membranes; experiment: Ligand binding assay with [³H]7, centrifugation assay on synaptosomal membrane preparation
Sequence (P20272 whole entry): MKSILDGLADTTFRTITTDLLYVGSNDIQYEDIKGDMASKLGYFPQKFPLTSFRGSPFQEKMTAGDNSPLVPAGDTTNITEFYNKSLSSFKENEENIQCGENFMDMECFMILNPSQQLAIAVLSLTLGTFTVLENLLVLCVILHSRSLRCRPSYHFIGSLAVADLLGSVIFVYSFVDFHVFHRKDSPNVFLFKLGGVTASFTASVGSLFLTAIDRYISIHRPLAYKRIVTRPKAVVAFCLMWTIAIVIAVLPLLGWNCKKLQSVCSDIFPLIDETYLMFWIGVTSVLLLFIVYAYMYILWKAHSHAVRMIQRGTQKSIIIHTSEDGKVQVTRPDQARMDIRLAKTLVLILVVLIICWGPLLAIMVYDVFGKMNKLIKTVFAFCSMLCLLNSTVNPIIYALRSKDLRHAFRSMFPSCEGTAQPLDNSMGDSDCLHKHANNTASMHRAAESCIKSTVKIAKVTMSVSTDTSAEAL
QUANTITY_NAME: pKi
One number for each entry, as −log10 of the molar value.

* CCCCCCC(C)(C)c1cc(O)c2c(c1)OC(C)(C)[C@H]1CC=C(CO)C[C@H]21 | 6.33

Read the next record carefully.
Problem: I would be grateful if you could share the reported pKi for CCCCCCC(C)(C)c1cc(O)c2c(c1)OC(C)(C)[C@@H]1CC=C(CO)C[C@@H]21 .
Result: 9.73
